- tested target: HLA-B*4403 (human)
- test summary: competitive inhibition of labeled probe peptide, purified HLA
reported endpoint: IC50 (nM)
Give the number; nM is assumed, so skip it.

// query Given the entry SEYLQLVFGIEVV [MAGE2 155 SEYLQLVFGIEVV] , report its measured IC50.
// result 7.6
